Reference source for all entries: patent US11691949B2

# Tested on: S. aureus ATCC 6538
# Method Description: MIC by broth microdilution, S. aureus
# Type: cell-based
# Measurement Setup: Staphylococcus aureus, ATCC6538, No Zinc; read-out: S. aureus ATCC 6538 MIC
// reported MIC per item

Worked cases, answers included:
CC(=O)c1ccc(S(=O)(=O)Nc2cccc3ccc(CN(C)C)nc23)cc1 = > 256 µg/mL
CC(C)CNCc1ccc2cccc(NS(=O)(=O)c3ccc(C(F)(F)F)cc3)c2n1 = 32 µg/mL
NCc1ccc2cccc(NS(=O)(=O)c3ccc(C(F)(F)F)cc3)c2n1 = 8 µg/mL
CN(C)Cc1ccc2cccc(NS(=O)(=O)c3cccnc3)c2n1 = > 256 µg/mL
CN(C)Cc1ccc2cccc(NS(=O)(=O)c3ccc(F)c(F)c3)c2n1 = > 256 µg/mL
O=S(=O)(Nc1cccc2ccc(CNCCc3ccccn3)nc12)c1ccc(C(F)(F)F)cc1 = 64 µg/mL

Moving on to another molecule below.
I have this molecule here, `O=S(=O)(Nc1cccc2ccc(CNCCOCCOCCO)nc12)c1ccc(C(F)(F)F)cc1` , and I need its recorded MIC.
128 µg/mL

* * *

// reported MIC for each item listed
# Tested on: S. uberis ATCC 19436
# Method Description: MIC by broth microdilution, S. uberis
# Assay type: cell-based
# Measurement Setup: Streptococcus uberis, ATCC19436, read-out: S. uberis ATCC 19436 MIC, Zinc (50 μM)
Structures can show the parent of a compound that is named as a salt.
Please state the figure in µg/mL; there is no need to write the unit.

The following compounds have reported results that may help.
CN(C)CCCNC(=O)c1ccc2cccc(NS(=O)(=O)c3ccc(C(F)(F)F)cc3)c2n1 [ZDR224, trifluoroacetate] = 16
CN(C)CCNC(=O)CNCc1ccc2cccc(NS(=O)(=O)c3ccc(C(F)(F)F)cc3)c2n1 [ZDR268, di-trifluoroacetate] = 16
CN1CCN(CCNCc2ccc3cccc(NS(=O)(=O)c4ccc(C(F)(F)F)cc4)c3n2)CC1 [ZDR114, di-trifluoroacetate] = 4
CN(C)CCCNC(=O)CNCc1ccc2cccc(NS(=O)(=O)c3ccc(C(F)(F)F)cc3)c2n1 [ZDR261, di-trifluoroacetate] = 16
O=C(CNCc1ccc2cccc(NS(=O)(=O)c3ccc(C(F)(F)F)cc3)c2n1)NCCCN1CCCCC1 [ZDR262, di-trifluoroacetate] = 16
O=S(=O)(Nc1cccc2ccc(CNCCCN3CCCCC3)nc12)c1ccc(C(F)(F)F)cc1 [ZDR115, di-trifluoroacetate] = 2
O=C(CNCc1ccc2cccc(NS(=O)(=O)c3ccc(C(F)(F)F)cc3)c2n1)NCCN1CCCCC1 [ZDR269, di-trifluoroacetate] = 8
CN(C)Cc1ccc2cccc(NS(=O)(=O)C3CCNCC3)c2n1 [ZDR263, di-trifluoroacetate] = 256
N=C(N)NCc1ccc2cccc(NS(=O)(=O)c3ccc(C(F)(F)F)cc3)c2n1 [ZDR187, trifluoroacetate] = 0.5
CN(C)CCCNCc1ccc2cccc(NS(=O)(=O)c3ccc(C(F)(F)F)cc3)c2n1 [ZDR090, di-trifluoroacetate] = 0.5

Data request, read-out MIC, for O=C(CNCc1ccc2cccc(NS(=O)(=O)c3ccc(C(F)(F)F)cc3)c2n1)NO [ZDR267, trifluoroacetate]
256

Try the compound CN(C)CCCC(=O)NCc1ccc2cccc(NS(=O)(=O)c3ccc(C(F)(F)F)cc3)c2n1 [ZDR211, trifluoroacetate]
16

Can you check O=C(CNCc1ccc2cccc(NS(=O)(=O)c3ccc(C(F)(F)F)cc3)c2n1)NC(CO)(CO)CO [ZDR265, trifluoroacetate] next?
256

And CNC(=O)CNCc1ccc2cccc(NS(=O)(=O)c3ccc(C(F)(F)F)cc3)c2n1 [ZDR270, trifluoroacetate] ?
4

Next: N=C(N)NCCNCc1ccc2cccc(NS(=O)(=O)c3ccc(C(F)(F)F)cc3)c2n1 [ZDR143, di-trifluoroacetate]
4

Here is the next compound: NC(=O)CNCc1ccc2cccc(NS(=O)(=O)c3ccc(C(F)(F)F)cc3)c2n1 [ZDR266, trifluoroacetate]
16

Also check CN1CCN(CCCNCc2ccc3cccc(NS(=O)(=O)c4ccc(C(F)(F)F)cc4)c3n2)CC1 [ZDR117, di-trifluoroacetate]
4

* * *

# Tested on: E. coli ATCC 10596
# Method Description: MIC by broth microdilution, E. coli
# Assay type: cell-based
# Measurement Setup: Escherichia coli, ATCC 10536 / ATCC 10596, Zinc (50 μM); read-out: E. coli ATCC 10536 MIC
# Experimental: Antibacterial susceptibility testing was performed in triplicate (biological) by measuring minimum inhibitory concentrations (MICs) by broth microdilution in 96-well flat bottom microtiter plates (ThermoFisher Scientific, New Zealand). […] After 24 h incubation at 37° C. and 200 rpm, the OD600 of wells were read using a Varioskan Flash plate reader (ThermoFisher Scientific, New Zealand). […]
Parameter MIC: see the listing below.

Worked cases, answers included:
C=CCNCc1ccc2cccc(NS(=O)(=O)c3ccc(C(F)(F)F)cc3)c2n1 = 256 µg/mL
CN(C)Cc1ccc2cccc(NS(=O)(=O)c3ccccc3F)c2n1 = > 256 µg/mL
O=S(=O)(Nc1cccc2ccc(CNCC(F)F)nc12)c1ccc(C(F)(F)F)cc1 = > 256 µg/mL

Which MIC is reported for this compound? `O=C(N/N=C/c1ccc2cccc(NS(=O)(=O)c3ccc(C(F)(F)F)cc3)c2n1)c1cccnc1`
> 256 µg/mL

Follow-up entry: `CC(C)(C)OC(=O)N=C(NCCNCc1ccc2cccc(NS(=O)(=O)c3ccc(C(F)(F)F)cc3)c2n1)NC(=O)OC(C)(C)C`
> 256 µg/mL

Entry `CN(C)Cc1ccc2cccc(NS(=O)(=O)c3ccc(Cl)s3)c2n1` please
> 256 µg/mL

Cool, now `CN(C)Cc1ccc2cccc(NS(=O)(=O)c3ccccc3Br)c2n1`
> 256 µg/mL

* * *

# System: E. coli ATCC 10596
# Method Description: MIC by broth microdilution, E. coli
# Type: cell-based
# Measurement Setup: Escherichia coli, ATCC 10536 / ATCC 10596, Zinc (50 μM); read-out: E. coli ATCC 10536 MIC
As shown below, each of these compounds has a reported MIC value.

// below: answered compounds
CN(C)Cc1ccc2cccc(NS(=O)(=O)c3ccc(N)cc3)c2n1 = > 256 µg/mL
CN(C)Cc1ccc2cccc(NS(=O)(=O)c3cc(F)c(F)cc3F)c2n1 = > 256 µg/mL
COCCNCc1ccc2cccc(NS(=O)(=O)c3ccc(C(F)(F)F)cc3)c2n1 = 256 µg/mL
CN(Cc1ccc2cccc(NS(=O)(=O)c3ccc(C(F)(F)F)cc3)c2n1)Cc1ccc2cccc(NS(=O)(=O)c3ccc(C(F)(F)F)cc3)c2n1 = > 256 µg/mL
CN1CCN(Cc2ccc3cccc(NS(=O)(=O)c4ccc(C(F)(F)F)cc4)c3n2)CC1 = > 256 µg/mL
C=CCS(=O)(=O)Nc1cccc2ccc(CN(C)C)nc12 = > 256 µg/mL

Consider the compound `CN(C)Cc1ccc2cccc(NS(=O)(=O)c3ccc(Cl)cc3)c2n1` and give its measured MIC.
> 256 µg/mL

What about this compound? `CCCCS(=O)(=O)Nc1cccc2ccc(CN(C)C)nc12`
> 256 µg/mL

# repeat for `CN(C)Cc1ccc2cccc(NS(=O)(=O)c3ccc(Cl)cc3Cl)c2n1`
> 256 µg/mL

Now the same for `N/C(=N\[N+](=O)[O-])NCc1ccc2cccc(NS(=O)(=O)c3ccc(C(F)(F)F)cc3)c2n1`
> 256 µg/mL

Also check `O=S(=O)(Nc1cccc2ccc(CNc3ccccc3)nc12)c1ccc(C(F)(F)F)cc1`
> 256 µg/mL

Try `CN(C)Cc1ccc2cccc(NS(=O)(=O)c3ccc([N+](=O)[O-])cc3)c2n1` next.
> 256 µg/mL

* * *

# Test system: S. aureus ATCC 6538
# Method Description: MIC by broth microdilution, S. aureus
# Type: cell-based
# Measurement Setup: Staphylococcus aureus, ATCC6538, read-out: S. aureus ATCC 6538 MIC, No Zinc
Structures can show the parent of a compound that is named as a salt.
Quantity: MIC (mg/L)
Hi! Could you send only the number? It should be in mg/L, unit omitted.

CN(C)CCCNCc1ccc2cccc(NS(=O)(=O)c3ccc(C(F)(F)F)cc3)c2n1 [ZDR090, di-trifluoroacetate] = 16

What value of MIC on S. aureus ATCC 6538 does O=C(CNCc1ccc2cccc(NS(=O)(=O)c3ccc(C(F)(F)F)cc3)c2n1)NC(CO)(CO)CO [ZDR265, trifluoroacetate] have?
64

What do we get for CN(C)CCCC(=O)NCc1ccc2cccc(NS(=O)(=O)c3ccc(C(F)(F)F)cc3)c2n1 [ZDR211, trifluoroacetate] ?
128

* * *

# Test system: E. coli ATCC 10596
# Method Description: MIC by broth microdilution, E. coli
# Format: cell-based
# Measurement Setup: Escherichia coli, ATCC 10536 / ATCC 10596, Zinc (50 μM); read-out: E. coli ATCC 10536 MIC
# Experimental: Antibacterial susceptibility testing was performed in triplicate (biological) by measuring minimum inhibitory concentrations (MICs) by broth microdilution in 96-well flat bottom microtiter plates (ThermoFisher Scientific, New Zealand). […] After 24 h incubation at 37° C. and 200 rpm, the OD600 of wells were read using a Varioskan Flash plate reader (ThermoFisher Scientific, New Zealand). […]
Quantity: MIC

CN(C)Cc1ccc2cccc(NS(=O)(=O)c3cccc(Br)c3)c2n1 = > 256 µg/mL
O=S(=O)(Nc1cccc2ccc(CO)nc12)c1ccc(C(F)(F)F)cc1 = > 256 µg/mL
COC(=O)c1sccc1S(=O)(=O)Nc1cccc2ccc(CN(C)C)nc12 = > 256 µg/mL

For the molecule `NC(=S)N/N=C/c1ccc2cccc(NS(=O)(=O)c3ccc(C(F)(F)F)cc3)c2n1` , what MIC is on record?
> 256 µg/mL

Consider next the molecule `O=S(=O)(Nc1cccc2ccc(CNCCF)nc12)c1ccc(C(F)(F)F)cc1` in the same way.
256 µg/mL

Now try `O=C(N/N=C/c1ccc2cccc(NS(=O)(=O)c3ccc(C(F)(F)F)cc3)c2n1)c1ccncc1` .
> 256 µg/mL

// query: `CC(=O)N/N=C/c1ccc2cccc(NS(=O)(=O)c3ccc(C(F)(F)F)cc3)c2n1`
> 256 µg/mL

Same question for `CN(C)Cc1ccc2cccc(NS(=O)(=O)C(F)(F)F)c2n1` please.
64 µg/mL

`CN(C)Cc1ccc2cccc(NS(=O)(=O)Cc3ccc(C(F)(F)F)cc3)c2n1` , same question.
> 256 µg/mL

Then `CN(C)Cc1ccc2cccc(NS(=O)(=O)N3CCCC3)c2n1` ?
> 256 µg/mL

And the next one, `O=S(=O)(Nc1cccc2ccc(CNCCN3CCSCC3)nc12)c1ccc(C(F)(F)F)cc1` ?
> 256 µg/mL
